Target: CHEK1 (human)
Test: radiometric filter-binding kinase assay
Conditions: compound 10.0 µM
MEASUREMENT TYPE: residual activity (%)

>>> experimental_value("NC1(c2ccc(-c3nc4ccn5c(=O)[nH]nc5c4cc3-c3ccccc3)cc2)CCC1")
45
>>> experimental_value("NC(=O)Nc1ccc2c(c1)/C(=C/c1cc(-c3cccnc3)c[nH]1)C(=O)N2")
1

A. O=C(NOCC(O)CO)c1ccc(F)c(F)c1Nc1ccc(I)cc1Cl (stereo not given)
B. NCC(=O)Nc1ccc(-n2nc(C(F)(F)F)cc2-c2ccc3c(ccc4ccccc43)c2)cc1
-- ask Quick one: lower residual activity, A or B ? Your answer should be the label attached to the chosen record.
-- reply B

----------
Target: PAK7 (human) (UniProt Q9P286)
Sequence (Q9P286 whole entry, looked up): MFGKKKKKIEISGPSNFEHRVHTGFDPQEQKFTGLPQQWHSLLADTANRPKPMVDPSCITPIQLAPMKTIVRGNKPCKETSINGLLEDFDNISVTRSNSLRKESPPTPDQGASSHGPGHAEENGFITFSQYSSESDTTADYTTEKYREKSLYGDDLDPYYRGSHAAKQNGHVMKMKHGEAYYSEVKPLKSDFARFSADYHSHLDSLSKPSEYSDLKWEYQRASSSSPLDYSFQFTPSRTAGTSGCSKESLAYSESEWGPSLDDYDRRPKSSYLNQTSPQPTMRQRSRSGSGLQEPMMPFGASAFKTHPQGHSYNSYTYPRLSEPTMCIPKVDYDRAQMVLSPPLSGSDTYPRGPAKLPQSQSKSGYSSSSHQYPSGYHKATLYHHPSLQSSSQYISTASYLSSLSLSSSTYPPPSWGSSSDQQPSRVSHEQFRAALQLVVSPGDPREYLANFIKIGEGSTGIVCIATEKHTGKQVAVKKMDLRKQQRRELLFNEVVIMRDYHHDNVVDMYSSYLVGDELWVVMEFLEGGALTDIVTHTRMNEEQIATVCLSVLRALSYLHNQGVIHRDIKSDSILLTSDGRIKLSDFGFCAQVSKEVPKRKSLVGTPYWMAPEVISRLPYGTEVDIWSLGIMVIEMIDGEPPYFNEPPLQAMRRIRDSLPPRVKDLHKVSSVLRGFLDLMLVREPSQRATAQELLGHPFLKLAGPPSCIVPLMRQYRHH
Assay: radiometric filter-binding kinase assay
Conditions: compound 0.1 µM
MEASUREMENT TYPE: residual activity (%)

>>> experimental_value("NC(=O)c1cc(-c2ccnc(NC3CCCCC3)c2)nc(N2CCNCC2)c1")
97
>>> experimental_value("CNc1nc(-c2ccc3c(N)n[nH]c3c2)cc(N2C[C@@H](C(=O)NC3CCCCC3)CC[C@H]2C)n1")
101
>>> experimental_value("Cc1cccc(-c2nn(C(=S)Nc3ccccc3)cc2-c2ccnc3ccccc23)n1")
107
>>> experimental_value("COc1cc(O)c2c(c1)/C=C/C[C@H](O)[C@H](O)C(=O)/C=C\\C[C@H](C)OC2=O")
96
>>> experimental_value("CN(C)C/C=C/C(=O)Nc1cccc(C(=O)Nc2ccc(Nc3nccc(-c4cccnc4)n3)cc2)c1")
89
>>> experimental_value("O=C(Nc1ccccc1-c1cn2c(CN3CCNCC3)csc2n1)c1cnc2ccccc2n1")
79
>>> experimental_value("NC(=O)c1cc2c(-c3cccc(-c4ccccc4)c3)cnc(N)c2s1")
79
>>> experimental_value("CC1=C(CO)C(=O)O[C@@H]([C@@H](C)[C@H]2CC[C@H]3[C@@H]4C[C@H]5O[C@]56[C@@H](O)C=CC(=O)[C@]6(C)C4CC[C@]23C)C1 (some centres undefined)")
102
>>> experimental_value("COc1ccc2c(c1)c1c3c(c4c5ccccc5n(C)c4c1n2CC(O)CN(C)C)C(=O)NC3=O (centres undefined)")
108

----------
Biological target: MAP2K1 (human) (UniProt Q02750)
Sequence (Q02750 whole entry, looked up): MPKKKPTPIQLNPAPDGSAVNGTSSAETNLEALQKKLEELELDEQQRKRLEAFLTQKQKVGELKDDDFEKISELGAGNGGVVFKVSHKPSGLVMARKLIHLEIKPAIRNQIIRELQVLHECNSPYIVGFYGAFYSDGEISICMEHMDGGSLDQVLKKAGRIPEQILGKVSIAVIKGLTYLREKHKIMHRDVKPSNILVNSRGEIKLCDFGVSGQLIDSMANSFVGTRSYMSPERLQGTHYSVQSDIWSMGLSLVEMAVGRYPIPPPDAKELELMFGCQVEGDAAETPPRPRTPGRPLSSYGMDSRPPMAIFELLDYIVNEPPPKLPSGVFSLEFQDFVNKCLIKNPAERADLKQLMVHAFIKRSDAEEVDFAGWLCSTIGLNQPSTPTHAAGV
Experiment: radiometric filter-binding kinase assay
Conditions: compound 1.0 µM
MEASUREMENT TYPE: residual activity (%)

Some compounds with known residual activity results, for comparison:
>>> experimental_value("CNc1nc(-c2ccc3c(N)n[nH]c3c2)cc(N2C[C@@H](C(=O)NC3CCCCC3)CC[C@H]2C)n1")
85
>>> experimental_value("CCn1c(-c2nonc2N)nc2cncc(CNC3CCNCC3)c21")
103
>>> experimental_value("COc1ccc(N(C(=O)Nc2c(C)cccc2C)c2cc(Nc3ccc(N4CCN(C)CC4)cc3)ncn2)c(OC)c1")
97
>>> experimental_value("O=C(O)c1ccc(-c2c[nH]c3ncc(-c4ccccc4)cc23)cc1C1CCCC1")
34
>>> experimental_value("COc1ccc(-n2ncc3cnc(Nc4cc(OC)c(OC)c(OCCCN5CCN(C)CC5)c4)nc32)cc1")
13

A. Oc1ccc(/C=C/c2cc(O)cc(O)c2)cc1
B. COc1cc(O)c2c(c1)/C=C/C[C@H](O)[C@H](O)C(=O)/C=C\C[C@H](C)OC2=O
C. O=C(NOCC(O)CO)c1ccc(F)c(F)c1Nc1ccc(I)cc1Cl (stereo unspecified)
-- ask Sort entries by residual activity from minimum to maximum value. Show the ranking through the labels, in the order asked for.
-- reply B, C, A

P. NS(=O)(=O)OC[C@@H]1C[C@@H](n2ccc3c(N[C@H]4CCc5ccccc54)ncnc32)C[C@@H]1O
Q. CNC(=O)C1[C@H]2O[C@@](C)([C@@H]1N)n1c3ccccc3c3c4c(c5c6ccccc6n2c5c31)C(=O)NC4 (stereo partly specified)
-- ask For the two items P and Q , which reports the higher residual activity value? Mark your selection by writing its label.
-- reply P

I. CN1C(=O)[C@@H](Cc2c[nH]c3ccccc23)NC1=S
II. NC(=O)Nc1ccc2c(c1)/C(=C/c1cc(-c3cccnc3)c[nH]1)C(=O)N2
-- ask Which record shows the lower residual activity: the first, I , or the second, II ? Please indicate the selected item by its label.
-- reply II
(II: 1%, I: 85%)

A. Cc1cccc(-c2nn(C(=S)Nc3ccccc3)cc2-c2ccnc3ccccc23)n1
B. O=C1NC(=S)N[C@@H]1Cc1c[nH]c2ccccc12
C. O=C(NOC[C@H](O)CO)c1ccc(F)c(F)c1Nc1ccc(I)cc1Cl
D. COc1cc(O)c2c(c1)[C@H]1OC1C[C@H](O)[C@H](O)C(=O)/C=C\C[C@H](C)OC2=O (stereo partly specified)
-- ask Ordering criterion: residual activity; begin with the maximum. List each label, following the requested order.
-- reply A, C, D, B

I. N#Cc1c(C2CCNCC2)cc(-c2c(O)cccc2OCC2CC2)nc1N
II. NC(=O)c1cc(-c2ccnc(NC3CCCCC3)c2)nc(N2CCNCC2)c1
-- ask // compare: I vs II , metric residual activity, want the smaller Refer to your chosen item by its label in the answer.
-- reply II
(II: 77%, I: 117%)

I. O=C(O)c1cc(N=Nc2ccc(S(=O)(=O)Nc3ccccn3)cc2)ccc1O
II. Cc1cccc(Nc2nn(C)c3ncnc(N)c23)c1
-- ask From the recorded data, which exceeds the other in residual activity: I or II ? Choose, then provide that item's label.
-- reply II
(II: 187%, I: 86%)

----------
Biological target: EPHA4 (human) (UniProt P54764)
Sequence (P54764 whole entry, looked up): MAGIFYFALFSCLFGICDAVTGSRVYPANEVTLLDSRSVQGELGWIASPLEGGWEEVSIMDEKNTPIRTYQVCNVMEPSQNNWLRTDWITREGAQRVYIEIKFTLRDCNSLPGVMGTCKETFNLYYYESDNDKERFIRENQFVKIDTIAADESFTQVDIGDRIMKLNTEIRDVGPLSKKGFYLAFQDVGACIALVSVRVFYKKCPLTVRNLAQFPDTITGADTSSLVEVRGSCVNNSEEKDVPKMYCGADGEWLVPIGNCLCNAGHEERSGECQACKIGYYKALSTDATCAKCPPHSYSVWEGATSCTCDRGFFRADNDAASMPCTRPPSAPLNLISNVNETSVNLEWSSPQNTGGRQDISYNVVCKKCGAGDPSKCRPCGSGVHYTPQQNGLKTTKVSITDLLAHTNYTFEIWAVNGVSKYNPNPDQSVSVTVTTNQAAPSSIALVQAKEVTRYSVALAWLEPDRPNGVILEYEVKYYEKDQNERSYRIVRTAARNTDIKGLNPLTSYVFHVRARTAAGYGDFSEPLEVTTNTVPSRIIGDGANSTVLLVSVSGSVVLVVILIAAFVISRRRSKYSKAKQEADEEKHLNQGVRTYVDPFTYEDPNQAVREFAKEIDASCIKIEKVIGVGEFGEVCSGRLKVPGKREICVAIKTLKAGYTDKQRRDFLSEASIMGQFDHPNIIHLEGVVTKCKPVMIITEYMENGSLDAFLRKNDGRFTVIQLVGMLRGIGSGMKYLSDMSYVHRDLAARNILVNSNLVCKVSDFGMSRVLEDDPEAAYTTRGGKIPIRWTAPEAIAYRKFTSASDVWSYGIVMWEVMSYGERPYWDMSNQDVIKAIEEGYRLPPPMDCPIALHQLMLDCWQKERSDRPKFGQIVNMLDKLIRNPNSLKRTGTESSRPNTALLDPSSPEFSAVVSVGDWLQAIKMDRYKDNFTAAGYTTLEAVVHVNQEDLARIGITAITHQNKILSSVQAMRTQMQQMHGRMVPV
Test: radiometric filter-binding kinase assay
Details: compound 1.0 µM
MEASUREMENT TYPE: residual activity (%)

>>> experimental_value("COc1cc(O)c2c(c1)[C@H]1OC1C[C@H](O)[C@H](O)C(=O)/C=C\\C[C@H](C)OC2=O (stereo not given in full)")
107

a. O=C(NOC[C@H](O)CO)c1ccc(F)c(F)c1Nc1ccc(I)cc1Cl
b. COc1cc(O)c2c(c1)/C=C/C[C@H](O)[C@H](O)C(=O)/C=C\C[C@H](C)OC2=O
-- ask Could you tell me which of these two has the smaller residual activity figure? First: a Second: b Answer by stating the label of the chosen item.
-- reply b

----------
Target: MAPK9 (human) (UniProt P45984)
Sequence (P45984 whole entry, looked up): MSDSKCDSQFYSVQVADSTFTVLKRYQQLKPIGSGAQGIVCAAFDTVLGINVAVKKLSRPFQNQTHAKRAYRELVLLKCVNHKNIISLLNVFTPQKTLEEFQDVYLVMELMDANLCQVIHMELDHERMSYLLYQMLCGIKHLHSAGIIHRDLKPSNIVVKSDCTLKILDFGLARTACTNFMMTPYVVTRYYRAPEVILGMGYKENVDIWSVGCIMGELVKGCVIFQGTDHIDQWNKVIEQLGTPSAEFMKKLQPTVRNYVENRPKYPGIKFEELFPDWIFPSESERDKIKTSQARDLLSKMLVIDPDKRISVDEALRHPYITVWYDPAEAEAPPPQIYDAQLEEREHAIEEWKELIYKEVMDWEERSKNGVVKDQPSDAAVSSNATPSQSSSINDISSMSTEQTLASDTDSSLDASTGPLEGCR
Assay: radiometric filter-binding kinase assay
Conditions: compound 0.01 µM
MEASUREMENT TYPE: residual activity (%)

>>> experimental_value("COc1ccc(N(C(=O)Nc2c(C)cccc2C)c2cc(Nc3ccc(N4CCN(C)CC4)cc3)ncn2)c(OC)c1")
103
>>> experimental_value("CNc1nc(-c2ccc3c(N)n[nH]c3c2)cc(N2C[C@@H](C(=O)NC3CCCCC3)CC[C@H]2C)n1")
117
>>> experimental_value("COc1cc(O)c2c(c1)[C@H]1OC1C[C@H](O)[C@H](O)C(=O)/C=C\\C[C@H](C)OC2=O (stereo partly specified)")
105
>>> experimental_value("O=C(Nc1nc2cc(C(F)(F)F)cc(NC3CC3)n2n1)c1cccnc1")
89
>>> experimental_value("C/C(=C1/C(=O)Nc2ccc(NC(N)=O)cc21)c1ccc[nH]1")
123
>>> experimental_value("CNC(=O)C1[C@H]2O[C@@](C)([C@@H]1N)n1c3ccccc3c3c4c(c5c6ccccc6n2c5c31)C(=O)NC4 (stereo partly specified)")
101

----------
Molecular target: UniProt:P27448
Sequence (P27448 whole entry, looked up): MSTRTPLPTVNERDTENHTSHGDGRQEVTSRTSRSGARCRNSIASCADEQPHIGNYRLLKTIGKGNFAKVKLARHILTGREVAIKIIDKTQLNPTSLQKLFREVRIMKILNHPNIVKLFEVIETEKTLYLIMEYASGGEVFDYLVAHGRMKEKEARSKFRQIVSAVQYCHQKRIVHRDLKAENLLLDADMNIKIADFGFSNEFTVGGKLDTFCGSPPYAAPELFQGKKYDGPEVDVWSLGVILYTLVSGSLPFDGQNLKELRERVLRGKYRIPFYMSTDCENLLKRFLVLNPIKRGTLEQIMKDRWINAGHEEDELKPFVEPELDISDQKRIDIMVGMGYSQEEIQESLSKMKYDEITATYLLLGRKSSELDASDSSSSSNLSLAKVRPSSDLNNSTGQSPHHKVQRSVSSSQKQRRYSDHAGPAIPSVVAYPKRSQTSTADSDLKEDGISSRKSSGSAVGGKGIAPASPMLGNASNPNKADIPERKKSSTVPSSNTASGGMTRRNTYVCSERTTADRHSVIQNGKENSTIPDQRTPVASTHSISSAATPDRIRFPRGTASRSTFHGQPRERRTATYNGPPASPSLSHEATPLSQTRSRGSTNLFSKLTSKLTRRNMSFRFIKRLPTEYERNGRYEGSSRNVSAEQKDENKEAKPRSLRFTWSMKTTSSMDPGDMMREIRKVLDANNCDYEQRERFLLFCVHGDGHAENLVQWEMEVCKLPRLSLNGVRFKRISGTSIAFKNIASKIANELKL
Assay: radiometric filter-binding kinase assay
Conditions: compound 0.01 µM
MEASUREMENT TYPE: residual activity (%)

Some compounds with recorded residual activity:
>>> experimental_value("C/C(=C1/C(=O)Nc2ccc(NC(N)=O)cc21)c1ccc[nH]1")
61
>>> experimental_value("CNc1nc(-c2ccc3c(N)n[nH]c3c2)cc(N2C[C@@H](C(=O)NC3CCCCC3)CC[C@H]2C)n1")
113

P. O=C(Nc1nc2cc(C(F)(F)F)cc(NC3CC3)n2n1)c1cccnc1
Q. CNC(=O)C1[C@H]2O[C@@](C)([C@@H]1N)n1c3ccccc3c3c4c(c5c6ccccc6n2c5c31)C(=O)NC4 (stereo partly specified)
-- ask Which record shows the lower residual activity: the first, P , or the second, Q ? Choose, then provide that item's label.
-- reply Q
(Q: 7%, P: 83%)

----------
Target: ABL1 (human)
Test: radiometric filter-binding kinase assay
Conditions: compound 0.1 µM
MEASUREMENT TYPE: residual activity (%)

>>> experimental_value("O=C(N[C@@H](COc1ccc2[nH]c(=O)[nH]c2c1)c1ccccc1)c1cccn(Cc2ccc(F)c(F)c2)c1=O")
106

I. Cc1ccc(-c2ccc3c(ccc4sc5c(c43)NC[C@@H](C)NC5=O)n2)cn1
II. CN1CCN(CCOc2cc(OC3CCOCC3)c3c(Nc4c(Cl)ccc5c4OCO5)ncnc3c2)CC1
III. CN(C)C/C=C/C(=O)Nc1cccc(C(=O)Nc2ccc(Nc3nccc(-c4cccnc4)n3)cc2)c1
-- ask Please give the order of these compounds when sorted by residual activity, largest value leading. Give the labels in the order specified.
-- reply I, III, II
(I: 120%, III: 77%, II: 26%)
